Reference for the values: patent US20160137708A1

# studyTarget: T1, human IL-1Rrp2 (IL-1R-related protein 2) (human, UniProt Q9HB29 20-575)
# T1 sequence (looked up): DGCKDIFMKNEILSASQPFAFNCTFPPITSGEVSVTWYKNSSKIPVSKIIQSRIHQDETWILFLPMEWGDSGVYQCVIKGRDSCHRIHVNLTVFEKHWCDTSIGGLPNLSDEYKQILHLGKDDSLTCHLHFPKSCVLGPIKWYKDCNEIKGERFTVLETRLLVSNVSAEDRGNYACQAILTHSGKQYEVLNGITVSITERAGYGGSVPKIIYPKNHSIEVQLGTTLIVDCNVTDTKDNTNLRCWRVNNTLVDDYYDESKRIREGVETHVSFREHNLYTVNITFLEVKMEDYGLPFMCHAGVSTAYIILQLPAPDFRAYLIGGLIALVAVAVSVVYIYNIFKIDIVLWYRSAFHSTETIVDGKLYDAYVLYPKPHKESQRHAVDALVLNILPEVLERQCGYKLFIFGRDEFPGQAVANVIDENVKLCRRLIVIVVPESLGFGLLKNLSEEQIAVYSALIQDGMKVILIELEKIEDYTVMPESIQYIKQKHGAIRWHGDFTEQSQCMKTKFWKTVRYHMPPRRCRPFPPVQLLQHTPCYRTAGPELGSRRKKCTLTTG
# assayDetails: cell-based or functional assay
Parameter: EC50, luciferase reporter assay in IL-1Rrp2 transfected Jurkat cells. Scope: all listed entries.
// note: answer is a bare numeric in ng/mL

// below: answered binders
[[record]]
binder = "HuIL-1F9S18/FpH (ligand) SMCKPITGTINDLNQQVWTLQGQNLVAVPRSDSVTPVTVAVITCKYPEALEQGRGDPIYLGIQNPEMCLYCEKVGEQPTLQLKEQKIMDLYGQPEPVKPFLFYRAKTGRTSTLESVAFPDWFIASSKRDQPIILTSELGKSYNTAFELNINDDYKDDDDKHHHHHH"
observedmeasurement = 1

[[record]]
binder = "HuIL-1F6I7/FpH (ligand) MIDTPQRGSIQDINHRVWVLQDQTLIAVPRKDRMSPVTIALISCRHVETLEKDRGNPIYLGLNGLNLCLMCAKVGDQPTLQLKEKDIMDLYNQPEPVKSFLFYHSQSGRNSTFESVAFPGWFIAVSSEGGCPLILTQELGKANTTDFGLTMLFDYKDDDDKHHHHHH"
observedmeasurement = 2.8

[[record]]
binder = "HuIL-1F8E6/FpH (ligand) MEAAPKSYAIRDSRQMVWVLSGNSLIAAPLSRSIKPVTLHLIACRDTEFSDKEKGNMVYLGIKGKDLCLFCAEIQGKPTLQLKEKNIMDLYVEKKAQKPFLFFHNKEGSTSVFQSVSYPGWFIATSTTSGQPIFLTKERGITNNTNFYLDSVEDYKDDDDKHHHHHH"
observedmeasurement = 0.2


Now consider a different binder.
GET /value?item= HuIL-1F9M19/FpH (ligand) MMCKPITGTINDLNQQVWTLQGQNLVAVPRSDSVTPVTVAVITCKYPEALEQGRGDPIYLGIQNPEMCLYCEKVGEQPTLQLKEQKIMDLYGQPEPVKPFLFYRAKTGRTSTLESVAFPDWFIASSKRDQPIILTSELGKSYNTAFELNINDDYKDDDDKHHHHHH &field=EC50, luciferase reporter assay in IL-1Rrp2 transfected Jurkat cells returns 1.1
